pIC50 values by entry
System: SMMC-7721
Assay: Cytotoxicity against human SMMC7721 cells after 48 hrs by MTT assay
Type: functional, cell-based
Settings: SMMC-7721, 48 h
pIC50: −log10 of the molar value.
MEASURED_METRIC: pIC50

CHEMICAL_SMILES	MEASURED_METRIC	QUALIFIER_OPERATOR	READOUT_VALUE
c1ccc(-c2oc3ccccc3c2Cn2cnc3ccccc32)cc1	pIC50	<	4.40
O=C(C[n+]1cnn(Cc2c(-c3ccccc3)oc3ccccc23)c1)c1ccc(O)cc1	pIC50	<	4.40
CCc1n(Cc2c(-c3ccccc3)oc3ccccc23)cc[n+]1CC(=O)c1ccc(F)cc1	pIC50	=	5.09
O=C(C[n+]1cn(Cc2c(-c3ccccc3)oc3ccccc23)c2ccccc21)c1ccc(F)cc1	pIC50	=	5.03
c1ccc(-c2oc3ccccc3c2Cn2cncn2)cc1	pIC50	<	4.40
O=C(C[n+]1cnn(Cc2c(-c3ccccc3)oc3ccccc23)c1)c1ccccc1	pIC50	=	5.24
O=C(C[n+]1cn(Cc2c(-c3ccccc3)oc3ccccc23)c2ccccc21)c1ccc2ccccc2c1	pIC50	=	5.58
O=C(C[n+]1ccn(Cc2c(-c3ccccc3)oc3ccccc23)c1)c1ccc(Br)cc1	pIC50	=	4.75
CCc1n(Cc2c(-c3ccccc3)oc3ccccc23)cc[n+]1CC(=O)c1ccc(Br)cc1	pIC50	=	5.22
CCc1n(Cc2c(-c3ccccc3)oc3ccccc23)cc[n+]1CC(=O)c1ccc2ccccc2c1	pIC50	=	5.64

###

Test system: SW480
Experiment: Cytotoxicity against human SW480 cells after 48 hrs by MTT assay
Type: functional, cell-based
Conditions: SW480, 48 h
pIC50: −log10 of the molar value.
Below, each entry is listed alongside its reported pIC50.
MEASURED_METRIC: pIC50

CHEMICAL_SMILES	ASSAYED_TARGET	MEASURED_METRIC	QUALIFIER_OPERATOR	READOUT_VALUE
CCc1n(Cc2c(-c3ccccc3)oc3ccccc23)cc[n+]1CC(=O)c1ccc(Br)cc1	SW480	pIC50	=	5.45
CCc1n(Cc2c(-c3ccccc3)oc3ccccc23)cc[n+]1CC(=O)c1ccc(OC)cc1	SW480	pIC50	=	5.24
O=C(C[n+]1cnn(Cc2c(-c3ccccc3)oc3ccccc23)c1)c1ccccc1	SW480	pIC50	=	4.77
Brc1ccccc1C[n+]1cnn(Cc2c(-c3ccccc3)oc3ccccc23)c1	SW480	pIC50	=	4.72
O=C(C[n+]1ccn(Cc2c(-c3ccccc3)oc3ccccc23)c1)c1ccc(F)cc1	SW480	pIC50	=	4.81
O=C(C[n+]1cn(Cc2c(-c3ccccc3)oc3ccccc23)c2ccccc21)c1ccc(O)cc1	SW480	pIC50	=	4.74
O=C(C[n+]1cnn(Cc2c(-c3ccccc3)oc3ccccc23)c1)c1ccc(O)cc1	SW480	pIC50	<	4.40
CCc1nccn1Cc1c(-c2ccccc2)oc2ccccc12	SW480	pIC50	<	4.40
CCc1n(Cc2c(-c3ccccc3)oc3ccccc23)cc[n+]1CC(=O)c1ccc2ccccc2c1	SW480	pIC50	=	5.50
O=C(C[n+]1cn(Cc2c(-c3ccccc3)oc3ccccc23)c2ccccc21)c1ccc2ccccc2c1	SW480	pIC50	=	5.44
CCc1n(Cc2c(-c3ccccc3)oc3ccccc23)cc[n+]1Cc1ccccc1Br.[Br-]	SW480	pIC50	=	6.33
O=C(C[n+]1ccn(Cc2c(-c3ccccc3)oc3ccccc23)c1)c1ccc(Br)cc1	SW480	pIC50	=	5.47
CCc1n(Cc2c(-c3ccccc3)oc3ccccc23)cc[n+]1CC(=O)c1ccc(F)cc1	SW480	pIC50	=	4.95
O=C(C[n+]1cn(Cc2c(-c3ccccc3)oc3ccccc23)c2ccccc21)c1ccc(Br)cc1	SW480	pIC50	=	5.36
O=C(C[n+]1cnn(Cc2c(-c3ccccc3)oc3ccccc23)c1)c1ccc(F)cc1	SW480	pIC50	=	4.78
c1ccc(-c2oc3ccccc3c2Cn2cnc3ccccc32)cc1	SW480	pIC50	<	4.40
c1ccc(C[n+]2cn(Cc3c(-c4ccccc4)oc4ccccc34)c3ccccc32)cc1	SW480	pIC50	=	5.49
O=C(C[n+]1cnn(Cc2c(-c3ccccc3)oc3ccccc23)c1)c1ccc2ccccc2c1	SW480	pIC50	=	5.54
c1ccc(-c2oc3ccccc3c2Cn2ccnc2)cc1	SW480	pIC50	<	4.40
CCCC[n+]1cnn(Cc2c(-c3ccccc3)oc3ccccc23)c1	SW480	pIC50	<	4.40

###

# maps each entry to its pIC50
Tested on: MCF7
Assay: Cytotoxicity against human MCF7 cells after 48 hrs by MTT assay
Type: functional, cell-based
Settings: MCF7, 48 h
pIC50: −log10 of the molar value.
MEASURED_METRIC: pIC50

CHEMICAL_SMILES	QUALIFIER_OPERATOR	READOUT_VALUE
CCCC[n+]1cnn(Cc2c(-c3ccccc3)oc3ccccc23)c1	<	4.40
COc1ccc(C(=O)C[n+]2ccn(Cc3c(-c4ccccc4)oc4ccccc34)c2)cc1	=	4.99
CCc1n(Cc2c(-c3ccccc3)oc3ccccc23)cc[n+]1CC(=O)c1ccccc1	=	5.12
Brc1ccccc1C[n+]1cn(Cc2c(-c3ccccc3)oc3ccccc23)c2ccccc21	=	5.32
c1ccc(C[n+]2cnn(Cc3c(-c4ccccc4)oc4ccccc34)c2)cc1	<	4.40
O=C(C[n+]1cn(Cc2c(-c3ccccc3)oc3ccccc23)c2ccccc21)c1ccccc1	=	5.41
O=C(C[n+]1cnn(Cc2c(-c3ccccc3)oc3ccccc23)c1)c1ccccc1	=	4.83
c1ccc(-c2oc3ccccc3c2Cn2ccnc2)cc1	<	4.40
CCc1n(Cc2c(-c3ccccc3)oc3ccccc23)cc[n+]1CC(=O)c1ccc(OC)cc1	=	5.50
COc1ccc(C(=O)C[n+]2cn(Cc3c(-c4ccccc4)oc4ccccc34)c3ccccc32)cc1	=	4.62
O=C(C[n+]1cnn(Cc2c(-c3ccccc3)oc3ccccc23)c1)c1ccc(F)cc1	=	4.79

###

Test system: SMMC-7721
Assay: Cytotoxicity against human SMMC7721 cells after 48 hrs by MTT assay
Type: functional, cell-based
Details: SMMC-7721, 48 h
Reported IC50 values for a set of compounds

CHEMICAL_SMILES	IC50
CCc1nccn1Cc1c(-c2ccccc2)oc2ccccc12	> 40 µM
c1ccc(C[n+]2cnn(Cc3c(-c4ccccc4)oc4ccccc34)c2)cc1	> 40 µM
CCCC[n+]1cnn(Cc2c(-c3ccccc3)oc3ccccc23)c1	> 40 µM
